Source of measurements: PubChem BioAssay (NCATS)

tested on: PC49; experiment: qHTS profiling for inhibitors of Plasmodium falciparum proliferation (AID 504749); note: nearly all actives have a fitted effect of over 60% in size; conditions: P. falciparum in erythrocytes, SYBR Green DNA, 72 h; series mostly up to 28.7 µM
Inconclusive results are not listed. The source made the active and inactive calls. Calls come from the whole dose curve; as a rule, active = well fitted inhibition curve with a large enough effect; inconclusive = small, poorly fitted or top-dose-only effect; inactive = flat fitted curve, though single readings scatter.
Select the matching outcome among true (1) for active, false (0) for inactive

# input What did this assay record as the result for CCNC(=O)/C=C/c1cccc(Br)c1 ?
# output false (0)

# input And the next one, OCc1ccccn1 ?
# output false (0)

# input And the next one, CC(C)[N+](C)(C)CC(O)COc1cccc2ccccc12 (stereo not given) ?
# output false (0)

# input And the next one, O=C(O)CCc1nc2ccccc2[nH]1 ?
# output true (1)

# input And the next one, OC1C(O)C(O)C(O)C(O)C1O (stereo not given) ?
# output false (0)

# input And the next one, CCOC(=O)c1ccc(N)cc1 ?
# output false (0)

# input And the next one, COc1ccc(-c2cc(C(F)F)nn2-c2ccc(S(N)(=O)=O)cc2)cc1F ?
# output false (0)
